# System: Escherichia coli TOP10;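 further: peptides expressed intracellularly from a pBAD plasmid library in pooled LB shake-flask culture, induced with 0.3% L-arabinose, DNA abundance read by NGS, three biological replicates, DESeq2 with apeglm shrinkage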
# Assay Info: shrunken log2 fold change of peptide-encoding DNA abundance (4.5 h post-induction vs induction); higher = less antimicrobial activity (less host growth inhibition)
# Settings: time post-induction: 4.5 h; library: site-saturation at positions 5, 18, 19, 20
Experimental Endpoint: shrunken log2 fold change
Answers are plain numbers.

* RRIRERPPRLPRPRPRPTVHPRP | -0.42
* RRIRPRPPRLPRPRPRPKDFPRP | -0.141
* RRIRWRPPRLPRPRPRPVDEPRP | 0.0343
* RRIRPRPPRLPRPRPRPPRCPRP | 0.408
* RRIRSRPPRLPRPRPRPSCHPRP | -0.245

Respectfully, I request shrunken log2 fold change for each entry included below.
1. RRIRCRPPRLPRPRPRPTLAPRP
2. RRIRHRPPRLPRPRPRPEWLPRP
3. RRIRIRPPRLPRPRPRPPLGPRP
4. RRIRVRPPRLPRPRPRPTYFPRP
5. RRIRNRPPRLPRPRPRPTHHPRP
6. RRIRWRPPRLPRPRPRPARYPRP

Reply:
1: 0.645; 2: 0.274; 3: 0.164; 4: -0.0832; 5: -0.0659; 6: -0.0422

These data points were gathered from the supplement of paper PMC9112550.
